- target-desc: Nuclear receptor subfamily 1 group I member 3 (Homo sapiens)
- test-protocol: qHTS assay to identify small molecule agonists of the constitutive androstane receptor (CAR) signaling pathway (AID 1224839);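 note: HepG2 cells stably carrying human CAR and a CYP2B6 luciferase reporter; % is set by controls: 0 for no effect and ±100 for the full control effect; nearly all actives have a fitted effect of over 15% in size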
- run-parameters: HepG2 hCAR CYP2B6-luciferase, agonist mode, 24 h; series mostly up to 92.4 µM
- Excerpt: National Center for Advancing Translational Sciences [NCATS] NIH Chemical Genomics Center [NCGC] U.S. Environmental Protection Agency [EPA] National Institutes of Environmental Health Sciences [NIEHS] National Toxicology Program [NTP] […] Assay Protocol Summary: A double-stable (hCAR and CYP2B6-2.2kb) transfected cell line, derived from human hepatoma (HepG2) cells, was utilized for the duration of the quantitative high-throughput screens. […]
Inconclusive results are not listed. Active and inactive are the calls of the source. Calls come from the whole dose curve; as a rule, active = well fitted activation curve with a large enough effect in the repeat runs; inconclusive = weak or mixed curves; inactive = no such curve, though single readings can be large or run the other way.
observable: activation

Completed entries (count: 5):
Cc1cccc(C)c1NC(=O)c1ccccc1C(=O)O :: inactive
CC(C)CCCC(C)(C)O :: inactive
CCN(C)C(=O)Oc1cccc([C@H](C)N(C)C)c1 :: inactive
COc1ccc(Br)c(C)c1 :: inactive
C[C@@H]1O[C@@H](O[C@@H]2[C@@H](O)[C@H](OCCc3ccc(O)c(O)c3)O[C@H](CO[C@@H]3O[C@H](CO)[C@@H](O)[C@H](O)[C@H]3O)[C@H]2OC(=O)/C=C/c2ccc(O)c(O)c2)[C@H](O)[C@H](O)[C@H]1O :: inactive

Would you mind giving activation for every compound in the list below?
1. O=C(NCCN1CCOCC1)c1ccc(Cl)cc1
2. N[C@@H](COP(=O)(O)O)C(=O)O
3. O=S(=O)(O)c1cc(O)c2ccc(Nc3ccccc3)cc2c1

Reply |
["inactive", "-2.56% [at 19 µM] (inactive)", "inactive"]

Would you mind giving activation for every compound in the list below?
1. O=C(CCN1CCN(CCO)CC1)N1c2ccccc2Sc2ccc(C(F)(F)F)cc21
2. COC(=O)c1ccccc1C(=O)c1ccc(OCCN2CCCCC2)cc1
3. Nc1ccc([N+](=O)[O-])c(N)c1

Reply |
1: inactive; 2: inactive; 3: inactive

----------
- target-desc: Cytochrome P450 2C19 (Homo sapiens)
- test-protocol: Cytochrome P450 Family 2 Subfamily C Member 19 (CYP2C19) small molecule antagonists: luciferase reporter qHTS assay (AID 1671197); note: nearly all actives have a fitted effect of over 65% in size; note: potency is the fitted concentration of half-maximal effect
- run-parameters: P450-Glo CYP2C19 enzyme, luciferin luminescence, 1 h; series mostly up to 115 µM
Inconclusive results are not listed. Calls of active or inactive are those of the source. Calls follow the shape of the dose curve; as a rule, active = well fitted inhibition curve with a large enough effect in the repeat runs; inconclusive = weak or mixed curves; inactive = no such curve, though single readings can be large or run the other way.
observable: Potency

Completed entries (count: 5):
COc1cc(N)ccc1C :: 1.98 µM (active)
OCCN(CCO)c1cccc(Cl)c1 :: 31.7 µM (active)
CC(=O)c1sc(C)nc1C :: inactive
CC(C(=O)O)c1ccc2c(c1)CC(=O)c1ccccc1S2 (stereo unspecified) :: inactive
COc1cc(C(=S)N2CCOCC2)cc(OC)c1OC :: 21.9 µM (active)

Would you mind giving Potency for every compound in the list below?
1. CC(C)=CCOC(=O)c1ccccc1
2. CCOc1cc(NC(C)=O)ccc1C(=O)OC
3. Cc1cc(Cl)c(C)cc1Cl
4. O=C1c2ccccc2C(=O)N1CCl
5. CCCCCCCCCC(C)=O
6. O=C(OCc1ccccc1)C(=O)OCc1ccccc1
7. CN(C)CCOCCO

Reply |
["inactive", "inactive", "inactive", "inactive", "inactive", "inactive", "inactive"]

Would you mind giving Potency for every compound in the list below?
1. C[Si](C)(C)C
2. ClCCCl
3. CCCCCCCCSCC

Reply |
inactive
inactive
inactive

Would you mind giving Potency for every compound in the list below?
1. BrCc1cccc(Oc2ccccc2)c1
2. CCCOC(OCCC)OCCC
3. CC(=O)/C=C/C1C(C)=CCC(C)C1(C)C (stereo unspecified)

Reply |
1: 7.96 µM (active); 2: inactive; 3: 10 µM (active)
